The measurements presented in this section are drawn from paper PMC8317065.

Test system: DGL
Test: DGL activity assay, UPLC-MS/MS, lung protein isolates
Type: biochemical, mouse
Conditions: mouse lung protein isolates 50 μg; THL 3-1,000 nM; read-out: IC50, inhibition of DAG metabolism (DGL activity)
pIC50: −log10 of the molar value.
quantity kind: pIC50

compound="CCCCCCCCCCC[C@@H](C[C@@H]1OC(=O)[C@H]1CCCCCC)OC(=O)[C@H](CC(C)C)NC=O [THL, tetrahydrolipstatin]" assay_system=DGL value_observed=7.13
